biological target: Follistatin (Homo sapiens) (UniProt P19883); experiment: follistatin binders on small-molecule microarrays, primary screen, biochemical, small-molecule microarray, 635/667 nm fluorescence (AID 1132); conditions: FST binding, 635 nm fluorescence, higher = more signal
Sequence (P19883 whole entry, looked up): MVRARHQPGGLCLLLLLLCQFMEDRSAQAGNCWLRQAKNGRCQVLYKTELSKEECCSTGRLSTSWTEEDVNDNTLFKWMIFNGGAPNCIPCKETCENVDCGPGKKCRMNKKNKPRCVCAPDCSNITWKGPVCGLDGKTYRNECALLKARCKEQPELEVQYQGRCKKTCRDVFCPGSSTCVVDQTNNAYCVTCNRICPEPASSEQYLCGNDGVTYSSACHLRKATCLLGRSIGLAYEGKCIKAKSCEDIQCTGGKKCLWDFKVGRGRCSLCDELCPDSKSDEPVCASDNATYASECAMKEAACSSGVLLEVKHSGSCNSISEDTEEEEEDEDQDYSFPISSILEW
Assay Readout: composite z-score
One number for each entry.

// batch mode: one composite z-score value per listed entry
1. CO[C@H]1COC(=O)CC=C[C@H](C)COC(=O)[C@@H](C)NC(=O)CC=C[C@@H]1C
2. CC(C)CON=C1C[C@@H](O)[C@@H](O)[C@@H]2[C@@H]3C(=O)N(Cc4ccc5c(c4)OCO5)C(=O)[C@@H]3CC[C@H]12
3. CCCNC(=O)OC[C@H]1O[C@H](CCON=Cc2ccc(C(=O)N3[C@H](c4ccc(C)cc4)[C@@H](C)CC[C@H]3C(=O)OC)cc2)C=C[C@@H]1Oc1ccc(OC)cc1
4. C#CCCCON=C1C[C@@H](O)[C@@H](O)[C@@H]2[C@@H]3C(=O)N(Cc4ccccc4)C(=O)[C@@H]3CC[C@@H]12

1. 1.29
2. 0.707
3. 0.277
4. -0.0389

----------
assay: modulators of HCV replicon luciferase signal, primary screen, HCV replication inhibitor project, Huh7 cells, luciferase reporter (AID 1109); conditions: 48 h, higher = more signal;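 note: huh7 hepatoma cells harbouring a luciferase neomycin HCV replicon reporter; luciferase luminescence as measure of HCV replicon replication; test concentration not given here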
Hi, to clarify the labels: T covers z-score from -0.9 upward, F covers anything below -0.9.

O=C1OCCC=C1C(O)CCc1ccccc1 (configuration not stated) = T

Determine whether measured z-score meets or exceeds -0.9 for "COc1cccc([C@@H]2Oc3ccc(OC)cc3C(=O)[C@H]2O)c1" T

Would you say "Cc1ccc(S(=O)(=O)N[C@@H]2COC(=O)[C@@H](C)COC(=O)CC=C[C@H]2C)cc1" shows z-score at minimum -0.9? T

Does the molecule "C#CCCCON=C1C[C@@H](O)[C@@H](O)[C@@H]2[C@@H]3C(=O)N(C(C)(C)C)C(=O)[C@@H]3CC[C@H]12" have recorded z-score that is -0.9 or more? T

----------
tested on: Human papillomavirus type 1a E7 protein (residues 1-88); experiment: HPV1a E7 small-molecule binders, primary screen, biochemical, small-molecule microarray, residues 1-88, 635 nm (AID 1129); conditions: small-molecule microarray binding, fluorescence 635 nm; higher = more signal
Entries get a class label from measured composite z-score. See ranges: group A: < -0.2; group B: ≥ -0.2 and < 0.7; group C: ≥ 0.7

Observe how each entry below is paired with its result.
COC(=O)CC=C[C@@H](C)[C@@H](C=NOC[C@@H](O)[C@H]1O[C@@H]2OC(C)(C)O[C@@H]2[C@H]1O)NS(=O)(=O)c1ccc(C)cc1 = group B
Cc1cc2c(nc1C)CCCCN2CC(C)ON=C[C@@H](C)[C@H](OCc1ccccc1)C(C)C (stereo not given in full) = group A
CO[C@H]1COC(=O)[C@@H](C)COC(=O)[C@@H](OCc2ccccc2)C=C[C@@H]1C = group A
COC(=O)C=CCCc1coc(C=CCNC(=O)OC)n1 = group A
CCOC(=O)[C@H](CC(C)C)NC(=O)CCC1CC(OC(=O)NCCc2ccc(F)cc2)CC2(CCCC(COC(=O)NCC(c3ccccc3)c3ccccc3)O2)O1 (stereo not given in full) = group C

State the band of CCOC(=O)[C@H](CC(C)C)NC(=O)CCC1CC(OC(=O)NCc2ccc3c(c2)OCO3)CC2(CCCC(COC(=O)NCCCN3CCCC3=O)O2)O1 (stereo not given in full) group C

Would you mind sorting "COc1ccc(O[C@@H]2[C@H](O)CO[C@H]2C=Cc2ccccc2)cc1" into the appropriate category? group A

Looking at "CCc1cc2c(nc1CC)CCN(CCC(C)=NOC[C@H]1O[C@H](c3ccccc3)C=C[C@@H]1Oc1ccc(OC)cc1)C2" , which class would you pick? group B

Class label required: "COc1ccc(O[C@@H]2[C@H](O)CO[C@@H]2C=Cc2ccccc2)cc1" group A

Lab note: sort "CC(=O)Nc1ccc([C@@H]2N[C@H](C(=O)O)CC[C@H]2C)cc1" into the matching composite z-score band. group B

Returns: class label. Input: "CCOC(=O)NN=C1C[C@@H](O)[C@@H](O)[C@@H]2[C@@H]3C(=O)N([C@@H](C)c4ccccc4)C(=O)[C@@H]3CC[C@H]12" group B
